Cited source for all entries: patent US20240116946A1

Molecular target: recombinant SARS-CoV-2 Main protease (Mpro) (Severe acute respiratory syndrome coronavirus 2 (2019-nCoV) (SARS-CoV-2), UniProt P0DTD1)
Test: Cov Mpro Biochemical IC50 Assay
Conditions: recombinant SARS-CoV-2 Mpro 7.5 nM, fluorogenic peptide substrate 40 μM; read-out: MPro IC50
pIC50: −log10 of the molar value.
Label rule, in plain words: pIC50 of 8 and up is condition met, under 8 is condition not met.

INSERT INTO measurements (compound, group) VALUES
  ('O=c1[nH]c2cc(-c3ccccc3Cl)sc2c(=O)n1-c1cncc2ccc(N3CC4(COC4)C3)cc12 [Example 397]', 'condition met'),
  ('COc1cc(-c2cc3c(s2)c(=O)n(-c2cncc4cnn(C)c24)c(=O)n3CCS(C)(=O)=O)c(Cl)cc1F [Example 1067]', 'condition not met'),
  ('COc1cc(-c2cc3[nH]c(=O)n(-c4cncc5cccc(F)c45)c(=O)c3s2)c(Cl)cc1F (single isomer, unassigned) [Example 900]', 'condition not met'),
  ('COc1ccc(Cl)c(-c2cc3[nH]c(=O)n(-c4cncc5scc(C)c45)c(=O)c3s2)c1 (single isomer, unassigned) [Example 1053]', 'condition not met'),
  ('COc1cc(-c2cc3c(s2)c(=O)n(-c2cnccc2C(F)(F)F)c(=O)n3CCC#N)c(C#N)cc1F [Example 862]', 'condition not met');

====

Target: recombinant SARS-CoV-2 Main protease (Mpro) (Severe acute respiratory syndrome coronavirus 2 (2019-nCoV) (SARS-CoV-2))
Assay: Cov Mpro Biochemical IC50 Assay
Settings: recombinant SARS-CoV-2 Mpro 7.5 nM, fluorogenic peptide substrate 40 μM; read-out: MPro IC50
pIC50: −log10 of the molar value.
Label rule, in plain words: pIC50 of 8 and up is condition met, under 8 is condition not met.

INSERT INTO measurements (compound, group) VALUES
  ('COc1cc(-c2cc3c(s2)c(=O)n(-c2cncc4cnn(C)c24)c(=O)n3CCC#N)c(C#N)cc1F (single isomer, unassigned) [Example 1004]', 'condition not met'),
  ('CS(=O)(=O)N1CCN(c2ccc3cncc(-n4c(=O)[nH]c5cc(-c6ccccc6Cl)sc5c4=O)c3c2)CC1 [Example 421]', 'condition met'),
  ('COc1ccc(Cl)c(-c2cc3[nH]c(=O)n(-c4cncc5scc(C)c45)c(=O)c3s2)c1 (single isomer, unassigned) [Example 1052]', 'condition met'),
  ('COc1cc(-c2cc3c(s2)c(=O)n(-c2cncc4nc(-c5ccc(F)cc5)n(C)c24)c(=O)n3CCC#N)c(Cl)cc1F [Example 758]', 'condition not met'),
  ('COc1cncc(-n2c(=O)c3sc(-c4cc(OC)c(F)cc4Cl)cc3n(CCC#N)c2=O)c1 [Example 870]', 'condition met'),
  ('COc1cc(-c2cc3[nH]c(=O)n(-c4cncc5cccnc45)c(=O)c3s2)c(Cl)cc1F (single isomer, unassigned) [Example 1008]', 'condition not met');

====

Molecular target: recombinant SARS-CoV-2 Main protease (Mpro) (Severe acute respiratory syndrome coronavirus 2 (2019-nCoV) (SARS-CoV-2), UniProt P0DTD1)
Assay: Cov Mpro Biochemical IC50 Assay
Settings: recombinant SARS-CoV-2 Mpro 7.5 nM, fluorogenic peptide substrate 40 μM; read-out: MPro IC50
Criterion: IC50 strictly less than 10 nM. Met: True. Not met: False.

INSERT INTO results (compound, group) VALUES
  ('N#CCCn1c(=O)n(-c2cncc3ccccc23)c(=O)c2sc(-c3cc(Cl)ccc3C#N)cc21 [Example 821]', 'True'),
  ('COc1cc(-c2cc3c(s2)c(=O)n(-c2cncc4cnn(C)c24)c(=O)n3CCN(C)C)c(Cl)cc1F [Example 1068]', 'False'),
  ('COc1ccc(Cl)c(-c2cc3[nH]c(=O)n(-c4cncc5nc(C(F)(F)F)sc45)c(=O)c3s2)c1 [Example 487]', 'False'),
  ('COc1cc(-c2cc3c(s2)c(=O)n(-c2cncc4nc(C(F)(F)F)n(C)c24)c(=O)n3CCC#N)c(Cl)cc1F [Example 856]', 'False'),
  ('COc1ccc(C#N)c(-c2cc3[nH]c(=O)n(-c4cncc5ccc(N6CCn7c(nnc7C(F)(F)F)C6)cc45)c(=O)c3s2)c1 [Example 602]', 'True'),
  ('COc1cc(-c2cc3c(s2)c(=O)n(-c2cncc4cnn(C)c24)c(=O)n3CC(F)F)c(Cl)cc1F [Example 1065]', 'True'),
  ('COc1ccc(C#N)c(-c2cc3[nH]c(=O)n(-c4cncc5cccc(F)c45)c(=O)c3s2)c1 [Example 446]', 'True'),
  ('O=c1[nH]c2cc(-c3ccccc3Cl)sc2c(=O)n1-c1cncc2ccc(N3CC(F)(F)C3)cc12 [Example 420]', 'False'),
  ('Cc1c(F)cncc1-n1c(=O)c2sc(-c3ccccc3Cl)cc2n(CCC#N)c1=O [Example 1023]', 'False'),
  ('COc1cnc(Cl)c(-c2cc3c(s2)c(=O)n(-c2cncc4nn(C)c(C)c24)c(=O)n3CCC#N)c1 [Example 1086]', 'False'),
  ('Cc1cccc2cncc(-n3c(=O)[nH]c4cc(-c5ccccc5Cl)sc4c3=O)c12 [Example 558]', 'True'),
  ('O=c1[nH]c2cc(-c3ccccc3Cl)sc2c(=O)n1-c1cncc2ccc(N3CC4(C3)CC(F)(F)C4)cc12 [Example 419]', 'False'),
  ('COc1cc(-c2cc3c(s2)c(=O)n(-c2cncc4cnn(C)c24)c(=O)n3CC2CCCN2C)c(Cl)cc1F (stereo not drawn) [Example 1071]', 'False'),
  ('Cc1cncc(-n2c(=O)c3sc(-c4ccccc4Cl)cc3n(CCC#N)c2=O)c1 [Example 984]', 'True');
